Collected literature values of IC50 measured for Galectin-3 (Homo sapiens).
Could you give the number and then its unit, please?

QUERY: GET IC50 | system: Galectin-3 (Homo sapiens) | item: COc1ccc(C2=NO[C@H](C[C@H]3O[C@H](CO)[C@H](O)[C@H](n4cc(-c5cc(F)c(F)c(F)c5)nn4)[C@H]3O)C2)cc1
RESULT: 0.31 µM

QUERY: GET IC50 | system: Galectin-3 (Homo sapiens) | item: CC(C)(C)OC(=O)N1CCC(c2cc(C[C@H]3O[C@H](CO)[C@H](O)[C@H](n4cc(-c5cc(F)c(F)c(F)c5)nn4)[C@H]3O)no2)CC1
RESULT: 0.043 µM

QUERY: GET IC50 | system: Galectin-3 (Homo sapiens) | item: CO[C@@H]1[C@@H](n2cc(-c3cc(F)c(F)c(F)c3)nn2)[C@@H](O)[C@@H](CO)O[C@@H]1Cn1cc(C2CCN(C(=O)NC3CC3)CC2)nn1
RESULT: 0.065 µM

QUERY: GET IC50 | system: Galectin-3 (Homo sapiens) | item: O=c1ccc(C2=NOC(C[C@H]3O[C@H](CO)[C@H](O)[C@H](n4cc(-c5cc(F)c(F)c(F)c5)nn4)[C@H]3O)C2)c[nH]1 (mixture of isomers)
RESULT: 0.25 µM

QUERY: GET IC50 | system: Galectin-3 (Homo sapiens) | item: CO[C@@H]1[C@@H](n2cc(-c3cc(F)c(F)c(F)c3)nn2)[C@@H](O)[C@@H](CO)O[C@H]1C(=O)N(c1ccc2ncsc2c1)[C@H]1CCCC[C@@H]1O
RESULT: 0.02 µM

QUERY: GET IC50 | system: Galectin-3 (Homo sapiens) | item: CO[C@@H]1[C@@H](n2cc(-c3ccc(Br)c(F)c3F)nn2)[C@@H](O)[C@@H](CO)O[C@H]1C(=O)N(c1cc(Cl)cc(Cl)c1)[C@H]1CCCC[C@@H]1O
RESULT: 0.013 µM

QUERY: GET IC50 | system: Galectin-3 (Homo sapiens) | item: OC[C@H]1O[C@H](CC2=NOC(C3CCCCC3)C2)[C@H](O)[C@@H](n2cc(-c3cc(F)c(F)c(F)c3)nn2)[C@H]1O (stereo partly drawn)
RESULT: 1 µM

QUERY: GET IC50 | system: Galectin-3 (Homo sapiens) | item: Cc1ccc(-c2cn([C@H]3[C@@H](O)[C@@H](CO)O[C@H](Cc4cc(C(C)(C)CO)no4)[C@@H]3O)nn2)c(F)c1F
RESULT: 0.024 µM

QUERY: GET IC50 | system: Galectin-3 (Homo sapiens) | item: [2H]C([2H])([2H])OC1C(n2cc(-c3cc(F)c(F)c(F)c3)nn2)[C@@H](O)C(CO)O[C@H]1[C@H](OCc1ccc(Br)cc1)C(=O)NC(C)(C)C (stereo partly drawn)
RESULT: 0.972 µM

QUERY: GET IC50 | system: Galectin-3 (Homo sapiens) | item: CO[C@@H]1[C@@H](n2cc(-c3ccc(Br)c(F)c3F)nn2)[C@@H](O)[C@@H](CO)O[C@@H]1CC1CC(C2CCNCC2)=NO1 (stereo partly drawn)
RESULT: 0.071 µM

QUERY: GET IC50 | system: Galectin-3 (Homo sapiens) | item: CCOC(=O)N[C@H]1CC[C@]2(CC1)CC(C[C@H]1O[C@H](CO)[C@H](O)[C@H](n3cc(-c4ccc(F)c(F)c4F)nn3)[C@H]1OC)=NO2
RESULT: 0.02 µM

QUERY: GET IC50 | system: Galectin-3 (Homo sapiens) | item: CO[C@@H]1[C@@H](n2cc(-c3ccc(Cl)c(F)c3F)nn2)[C@@H](O)[C@@H](CO)O[C@@H]1Cc1cc(C2CCCC2)on1
RESULT: 0.067 µM
